meta.source: PubChem BioAssay AID1903

experimental_system: Large T antigen (Simian virus 40)
measurement_description: SV40 large T antigen inhibitors, biochemical (AID 1903)
particulars: SV40 large T antigen ATPase/helicase inhibition assay; at 20 µM; active compounds read high
The campaign covered roughly 310,000 compounds. About 1,200 (0.39%) were called active. Not all results are given here. Entries with a potency or affinity are not part of this list.

{"columns": ["compound", "inhibition [%]"],
 "data": [
  ["O=c1ccc2cc3c4c(c2o1)CCCN4CCC3", 3.45],
  ["COc1cc(/C=N/NC(=O)CSc2nc3ccccc3n2C)cc(OC)c1OC", -1.56],
  ["O=C(N/N=C/c1ccc(O)cc1)c1cc(-c2ccccc2)nc2ccccc12", 14.6],
  ["COc1c(O)ccc2c1CN1CCc3cc4c(cc3C1C2)OCO4 (stereo unspecified)", 58.7],
  ["COc1ccc(O)c(C(=O)c2cnc3c(c2)c(=O)[nH]c(=O)n3C)c1", 3.44],
  ["CCn1c(SCC(=O)N/N=C/c2cc(OC)c(O)c(OC)c2)nc2ccccc21", -7.37],
  ["CCCc1cc(=O)[nH]c(SCCCCN2C(=O)c3ccccc3C2=O)n1", 16.4],
  ["COc1cc2c(cc1OC)C(Cc1ccc(O)cc1)N(C)CC2 (stereo unspecified)", 2.71],
  ["O=C1NC(=O)/C(=C\\c2ccccc2OCc2ccc([N+](=O)[O-])cc2)N1", 16],
  ["CC(C)c1cc(=O)oc2c3c4c(cc12)CCCN4CCC3", 4.43],
  ["O=C(Nc1ccc(N2CCN(C(=O)c3ccccc3F)CC2)cc1)c1ncn[nH]1", 8.25]
]}

====

experimental_system: Large T antigen (Simian virus 40) (UniProt P03070)
Sequence (P03070 whole entry, looked up): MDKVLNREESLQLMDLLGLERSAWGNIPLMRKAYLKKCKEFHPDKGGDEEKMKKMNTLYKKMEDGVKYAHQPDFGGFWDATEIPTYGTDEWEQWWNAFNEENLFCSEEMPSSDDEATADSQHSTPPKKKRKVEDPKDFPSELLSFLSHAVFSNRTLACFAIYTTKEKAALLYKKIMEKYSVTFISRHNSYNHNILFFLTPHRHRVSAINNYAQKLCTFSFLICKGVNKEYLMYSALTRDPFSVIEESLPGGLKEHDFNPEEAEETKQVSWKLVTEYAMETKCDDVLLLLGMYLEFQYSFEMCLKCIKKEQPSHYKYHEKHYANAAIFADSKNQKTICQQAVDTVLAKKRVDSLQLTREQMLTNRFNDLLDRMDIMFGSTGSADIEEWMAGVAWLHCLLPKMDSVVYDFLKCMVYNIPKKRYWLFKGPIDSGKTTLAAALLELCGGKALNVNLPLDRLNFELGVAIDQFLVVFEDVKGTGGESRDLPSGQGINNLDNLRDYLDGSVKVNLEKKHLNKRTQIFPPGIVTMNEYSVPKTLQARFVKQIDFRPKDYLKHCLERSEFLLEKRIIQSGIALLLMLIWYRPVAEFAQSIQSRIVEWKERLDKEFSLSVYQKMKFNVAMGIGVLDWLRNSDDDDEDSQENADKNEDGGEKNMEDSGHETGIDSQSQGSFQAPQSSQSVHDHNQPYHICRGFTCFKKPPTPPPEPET
measurement_description: SV40 large T antigen inhibitors, biochemical (AID 1903)
particulars: SV40 large T antigen ATPase/helicase inhibition assay; at 20 µM; active compounds read high
In all, about 310,000 compounds went through this assay and about 1,200 (0.39%) were called active. A selection follows. Measured potencies and affinities stand elsewhere.

{"columns": ["compound", "experimental_system", "value_units", "inhibition"],
 "data": [
  ["C/C(=N\\NC(=O)CSc1nc2ccccc2o1)c1cccc(O)c1", "Large T antigen (Simian virus 40) (UniProt P03070)", "%", 14.6],
  ["Cn1c(COc2ccc3ccccc3c2)nnc1SCC(N)=O", "Large T antigen (Simian virus 40) (UniProt P03070)", "%", -1.72],
  ["Cc1[nH]c2ccccc2c1-c1csc(NC(=O)CN2CCOCC2)n1", "Large T antigen (Simian virus 40) (UniProt P03070)", "%", 35.5],
  ["C/C(=N/NC(=O)CSc1nc2ccccc2n1C)c1ccncc1", "Large T antigen (Simian virus 40) (UniProt P03070)", "%", 1.08],
  ["CC(=O)O[C@@H]1[C@H]2[C@@H](C[C@@H](C)[C@@H]3C=CC(=O)[C@@]13C)OC(=O)[C@@H]2C", "Large T antigen (Simian virus 40) (UniProt P03070)", "%", 11.5],
  ["NC(=O)C1CCN(C(=O)c2ccc(Oc3ccccc3)cc2)CC1", "Large T antigen (Simian virus 40) (UniProt P03070)", "%", 13.6],
  ["O=C(O)C1CCCC[C@H]1C(=O)Nc1ncc([N+](=O)[O-])s1 (stereo not given in full)", "Large T antigen (Simian virus 40) (UniProt P03070)", "%", 3.81],
  ["C=CCn1c(SCC(=O)N2CCCC2)nc2c([nH]c3ccccc32)c1=O", "Large T antigen (Simian virus 40) (UniProt P03070)", "%", 5.61],
  ["Cc1[nH]c2ccccc2c1-c1csc(NC(=O)CSCCO)n1", "Large T antigen (Simian virus 40) (UniProt P03070)", "%", 23.2],
  ["Cn1ccc(C(=O)Oc2ccc(C(=O)Nc3ccc(F)cc3F)cc2)n1", "Large T antigen (Simian virus 40) (UniProt P03070)", "%", 1.18]
]}

====

Some compounds, each annotated with its measured inhibition.
experimental_system: Large T antigen (Simian virus 40)
measurement_description: SV40 large T antigen inhibitors, biochemical (AID 1903)
particulars: SV40 large T antigen ATPase/helicase inhibition assay; at 20 µM; active compounds read high
The campaign covered roughly 310,000 compounds. About 1,200 (0.39%) were called active. These entries were drawn from the full list. Entries with a potency or affinity are not part of this list.

{"columns": ["compound", "inhibition"],
 "data": [
  ["O=C(C1CCCN(Cc2ccccc2F)C1)N1CCCC1 (stereo not drawn)", "-1.92% (inactive)"],
  ["Cc1ccc2nc(-c3ccccn3)c(Nc3ccccc3C)n2c1", "16.6% (inactive)"],
  ["COc1cc(/C=N/Nc2nn3cnnc3c3ccccc23)ccc1O", "8.69% (inactive)"],
  ["Cc1ccc(C)c(NC(=O)CN(C)C(=O)c2cc3c(s2)CCCCC3)c1", "17% (inactive)"],
  ["COc1ccccc1OCC(=O)Nc1nonc1NC(=O)COc1ccccc1OC", "11.7% (inactive)"],
  ["Oc1ccc(/C=N/NC2=NCCCCC2)cc1", "25.1% (inactive)"],
  ["CC(=O)Nc1ccc(NC(=O)C2CC(=O)N(Cc3ccccc3)C2)cc1 (stereo not drawn)", "27.7% (inactive)"],
  ["Cc1nc(NC(=O)CCl)sc1C(=O)N(C)C", "22.7% (inactive)"],
  ["COc1ccc(Nc2nc(N)c([N+](=O)[O-])c(N3CCOCC3)n2)cc1", "10.9% (inactive)"],
  ["Cc1ccc(-n2nnnc2SCC(=O)Nc2ccc(N3CCN(C)CC3)cc2)c(C)c1", "17.6% (inactive)"],
  ["O=C(O)CNC(=S)N(Cc1ccccc1F)C1CCCCC1", "4.15% (inactive)"],
  ["c1ccc(-c2nc3ccccn3c2NC2CCCC2)nc1", "35% (inactive)"],
  ["CC(=O)c1ccc(N2C(=O)NC3(CCCCC3)C2=O)cc1", "3.35% (inactive)"],
  ["Cc1ccc(-c2cc(C(F)(F)F)n3ncc(C(=O)N4CCN(C)CC4)c3n2)cc1", "-2.21% (inactive)"],
  ["O=C(CS(=O)CC(=O)Nc1ccccc1-c1ccccc1)Nc1ccc(F)cc1 (stereo not drawn)", "6.05% (inactive)"],
  ["O=[N+]([O-])c1cccc(C2(O)COc3ccccc3O2)c1 (stereo not drawn)", "6.64% (inactive)"],
  ["CCC(CC)C(=O)Nc1nnc(S(=O)(=O)N(CC)c2ccc(OC)cc2)s1", "3.96% (inactive)"],
  ["COc1ccc(/C=N/Nc2cc(C)nc3c(C)cccc23)cc1", "4.3% (inactive)"]
]}

====

Some compounds, each annotated with its measured inhibition.
experimental_system: Large T antigen (Simian virus 40) (UniProt P03070)
measurement_description: SV40 large T antigen inhibitors, biochemical (AID 1903)
particulars: SV40 large T antigen ATPase/helicase inhibition assay; at 20 µM; active compounds read high
Out of some 310,000 compounds screened, about 1,200 (0.39%) were called active. A selection follows. Results with a measured potency or affinity are listed apart.

{"columns": ["compound", "inhibition / %"],
 "data": [
  ["Cc1c(C(=O)Nc2cc(S(=O)(=O)N3CCOCC3)ccc2N2CCOCC2)oc2ccccc12", 0.37],
  ["O=C(Nc1ccccc1C(=O)Nc1ccccc1)c1cccs1", 5.41],
  ["CCOc1ccc2c(c1)C(c1ccccc1)=NNC(c1ccccc1)=N2", 4.86],
  ["CN1C(=O)SC(Nc2ccc(F)cc2)C1=O (centres undefined)", 20.7],
  ["O=C1/C(=C/c2cccnc2)SC(=S)N1c1ccc(F)cc1", 21.6],
  ["Cn1c(CNC(=O)C(Cc2ccccc2)NC(=O)c2cccc(F)c2)cc(=O)n(C)c1=O (centres undefined)", -0.65],
  ["Cc1ccc(Cn2cnc3sc4c(c3c2=O)CCC4)c(C)c1", 9.2],
  ["Cc1ccc(/C=C2/NC(=O)N(Cc3ccccc3)C2=O)o1", 9.41],
  ["O=C1N/C(=C/c2ccc(N3CCOCC3)cc2)C(=O)N1Cc1ccc(F)cc1", 3.08],
  ["O=C1N/C(=C\\c2ccsc2)C(=O)N1Cc1ccc(F)cc1", 5.82],
  ["COCC(=O)Nc1ccc2c(c1)OCC(=O)N2Cc1ccccc1F", 20.2],
  ["CCSC1=C(C#N)C(c2cccc(Br)c2)CC(=O)N1 (centres undefined)", 1.17],
  ["O=C(c1cnn(-c2ccccc2)c1)c1ccccc1O", -1.98],
  ["CCOC(=O)C(CN1CCCC1)c1ccccc1 (centres undefined)", 6.65],
  ["Cc1ccc(/C=C2/NC(=O)N(Cc3ccc(Br)cc3)C2=O)o1", 9.48],
  ["O=[N+]([O-])c1cccc2nc(-c3ccccc3)c(-c3ccccc3)nc12", 1.39],
  ["CCc1noc(C)c1C(=O)N1CCN(S(=O)(=O)c2c(C)c(C)cc(C)c2C)CC1", 5.1],
  ["CCCCN(C(=O)NC(=O)Nc1ccccc1C)S(C)(=O)=O", 12],
  ["O=C1/C(=C\\c2cccnc2)SC(=S)N1c1ccc(F)cc1", 9.19]
]}
